# tested.target: EPHB2 (UniProt P29323)
# Sequence (P29323 whole entry, looked up): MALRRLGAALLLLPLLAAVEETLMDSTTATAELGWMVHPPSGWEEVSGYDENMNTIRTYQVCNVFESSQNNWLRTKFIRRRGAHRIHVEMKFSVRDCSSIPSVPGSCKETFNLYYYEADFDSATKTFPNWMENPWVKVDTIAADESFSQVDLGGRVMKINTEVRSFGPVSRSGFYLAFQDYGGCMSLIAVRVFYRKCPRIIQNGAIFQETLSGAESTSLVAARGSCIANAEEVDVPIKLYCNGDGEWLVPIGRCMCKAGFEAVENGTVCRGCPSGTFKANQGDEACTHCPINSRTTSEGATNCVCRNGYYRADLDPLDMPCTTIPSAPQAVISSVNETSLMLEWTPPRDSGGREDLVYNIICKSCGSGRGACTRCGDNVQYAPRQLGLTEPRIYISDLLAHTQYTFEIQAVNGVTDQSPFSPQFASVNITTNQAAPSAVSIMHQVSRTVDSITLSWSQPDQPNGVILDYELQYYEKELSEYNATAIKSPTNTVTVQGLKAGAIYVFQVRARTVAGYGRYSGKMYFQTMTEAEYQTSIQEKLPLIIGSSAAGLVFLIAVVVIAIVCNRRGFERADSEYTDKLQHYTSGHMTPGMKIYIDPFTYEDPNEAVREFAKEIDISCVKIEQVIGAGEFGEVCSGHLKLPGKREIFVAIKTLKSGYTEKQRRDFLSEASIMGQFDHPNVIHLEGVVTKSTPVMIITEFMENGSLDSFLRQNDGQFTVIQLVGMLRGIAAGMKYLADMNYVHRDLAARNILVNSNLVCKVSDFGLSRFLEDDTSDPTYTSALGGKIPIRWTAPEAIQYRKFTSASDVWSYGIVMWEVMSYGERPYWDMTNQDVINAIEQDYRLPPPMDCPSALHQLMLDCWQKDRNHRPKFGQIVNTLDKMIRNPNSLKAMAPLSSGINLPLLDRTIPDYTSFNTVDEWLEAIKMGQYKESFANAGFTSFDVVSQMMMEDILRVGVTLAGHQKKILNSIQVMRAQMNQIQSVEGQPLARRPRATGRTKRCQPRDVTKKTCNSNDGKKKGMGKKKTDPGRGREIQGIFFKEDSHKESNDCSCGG
# protocol.description: phosphorylation enrichment, bacterial display (enrichment ratio); higher = better substrate or ligand; peptides without Tyr show the background;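 note: 11-residue human phosphosite peptides and single-mutation variants displayed on the E. coli surface, counted by deep sequencing, each peptide's frequency after selection divided by its frequency in the unselected input library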;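 note: frequency after pTyr selection over input frequency; kinase dosed for 20-30% of maximal phosphorylation in three min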
Would you mind telling me the reported phosphorylation enrichment of each entry?
One number for each entry.

                       item_sequence           property_measured  assay_value
0       QQLVAYYSKHT [SRC_Y232_A237T]  phosphorylation enrichment         0.92
1     PSPMPCASCQM [FOXL2_Y215_Y215C]  phosphorylation enrichment        0.287
2         LFSGDYFRIQG [DDR2_Y740_YF]  phosphorylation enrichment          4.1
3        ALPGEYIPTVF [RAC1_Y32_F28L]  phosphorylation enrichment        0.595
4  RGFRVCFTPDS [PTPRF_Y450_Y450C_YF]  phosphorylation enrichment        0.462

Go through the list and state phosphorylation enrichment for each entry.
1. YVSSFYHAFSG [ACTN4_Y265]
2. VRTGIYHGGKP [PIK3CA_Y361_E365K]
3. KWRGQYDVANK [BTK_Y425_I429N]
4. MEYAKYGSLRG [RET_Y809_V804M]
5. VHLFAYDWISI [BEST1_Y227_G222V_YF]
6. RLSARYFQGDL [PDK3_Y337_Y334S]

1. 1.41
2. 0.336
3. 0.396
4. 0.465
5. 0.868
6. 0.342
